System: ZR-75-1
Assay: viability inhibition at highest dose (% inhibition); higher = more growth inhibition
Details: 4-OH-tamoxifen in medium 0 µM; 72 h
Counter-ions that a name gives are not always drawn.
Mark 1.0 only when viability inhibition at highest dose stays strictly below 10. Values equal to the cut-off are 0.0.

is_below(viability inhibition at highest dose, 10) for C[C@@H]1C=C2C(=O)O[C@@H]3CC[C@H](C1)[C@]23O [Galiellalactone] (drug 50000 nM) ?
1.0

Hello, I'm reviewing records and need to know if viability inhibition at highest dose of O=C(Nc1ccncc1)C(=O)c1cn(Cc2ccc(Cl)cc2)c2ccccc12 [Indibulin] (drug 10000 nM) is below 10. Could you check?
1.0

Hello, I'm reviewing records and need to know if viability inhibition at highest dose of C/C(=C\c1csc(C)n1)[C@@H]1C[C@@H]2O[C@]2(C)CCC[C@H](C)[C@H](O)[C@@H](C)C(=O)C(C)(C)[C@@H](O)CC(=O)N1 [Ixabepilone] (drug 1000 nM) is below 10. Could you check?
1.0

Dear reviewer, please state whether Cn1cc(C2=Nc3cc(NC(=O)C(N)C4CCCCC4)cc4c3C2=CNNC4=O)cn1 (configuration not stated) (drug 10000 nM) has viability inhibition at highest dose strictly beneath 10.
1.0

I wonder whether CN1CC[C@H](c2c(O)cc(O)c3c(=O)cc(-c4ccccc4Cl)oc23)[C@H](O)C1 [Alvocidib (Flavopiridol)] (drug 10000 nM) has viability inhibition at highest dose below 10. Can you tell?
0.0

API: query returns whether the compound falls strictly under 10 in viability inhibition at highest dose. Query: CC[C@H](Nc1ncnc2[nH]cnc12)c1nc2cccc(F)c2c(=O)n1-c1ccccc1 [CAL-101] (drug 10000 nM)
0.0

hey, is viability inhibition at highest dose for O=C(c1ccc(OCCN2CCCCC2)cc1)c1c(-c2ccc(O)cc2)sc2cc(O)ccc12 [Raloxifene HCl] (drug 10000 nM) lower than 10 or not?
0.0
